Experiment: Rat telemetry protocol, core body temperature
Assay type: in vivo
Conditions: core body temperature of rats one hour post dosing, 100 μmol/kg p.o., relative to vehicle
Protocol: Male, Sprague Dawley rats, 225-250 grams were anesthetized with Sevoflurane (Abbott Laboratories). Rats were placed on a heating pad and covered with a sterile surgical drape. […] Temperature measurements were recorded every 15 minutes for the duration of the study (24 hours). […] The term “core body temperature” as used herein, means the temperature measured in the intraperitoneal cavity.
Doc: threshold 0 °C (exclusive). Items with Δ Temp (° C.) beneath it return criterion met; others return criterion not met.

Take a look at these entries with their results.
substance_smiles	qualitative_label
Cn1ncc2c(NC(=O)N[C@@H]3CC4(CCC4)Oc4ccc(F)cc43)cccc21	criterion not met
CCC1(CC)C[C@@H](NC(=O)Nc2cccc3cnc(C)cc23)c2ccc(Cl)cc2O1	criterion not met
Cc1cc2c(NC(=O)N[C@@H]3CC(C)(C)Oc4cc(Cl)ccc43)cccc2cn1	criterion not met
CC1(C)C[C@@H](NC(=O)Nc2cccc3cnccc23)c2ccc(C(F)(F)F)cc2O1	criterion met
CCC1(CC)C[C@@H](NC(=O)Nc2cccc3cnc(Cl)cc23)c2cccc(F)c2O1	criterion met
CCC1(CC)C[C@@H](NC(=O)Nc2cccc3cnccc23)c2cc(F)ccc2O1	criterion met

Strictly below 0 °C in Δ Temp (° C.)? O=C(Nc1cccc2[nH]ncc12)N[C@@H]1CCOc2c(OC(F)(F)F)cccc21
criterion not met

Query CCC1(CC)C[C@@H](NC(=O)Nc2cccc3c2cnn3C)c2cccc(OC(F)(F)F)c2O1 next
criterion not met

Query Cc1cc2c(NC(=O)N[C@@H]3CC(C)(C)Oc4c(OC(F)(F)F)cccc43)cccc2cn1 next
criterion met

This collection of values is drawn from patent US8604053B2.
